tested on: Paracentrotus lividus; assay: Induction of microtubule destabilization in sea urchin embryo assessed as cleavage alteration exposed 8 to 20 mins after fertilization and 45 to 55 mins before first mitotic cycle completion measured 2.5 to 5.5 hrs after fertilization
EC values by entry
outcomeMeasure: EC

- smilesEntry: "Cc1ccc(C(=O)c2sc3nc4c(cc3c2N)CCCC4)cc1"
  result: "0.02 µM"
- smilesEntry: "COc1ccc(C(=O)c2sc3nc4c(c(-c5ccccc5)c3c2N)CCCC4)cc1OC"
  result: "> 4 µM"
- smilesEntry: "Nc1c(C(=O)c2ccc(Cl)cc2)sc2nc3c(cc12)CCCC3"
  result: "0.5 µM"
- smilesEntry: "COc1ccc(C(=O)c2sc3nc4c(c(-c5ccncc5)c3c2N)CCCC4)cc1OC"
  result: "> 4 µM"
- smilesEntry: "Nc1c(C(=O)Nc2ccccc2)sc2nc3c(cc12)CCCCC3"
  result: "0.01 µM"
- smilesEntry: "Cc1cc(C)c2c(N)c(C(=O)c3ccc4c(c3)OCCO4)sc2n1"
  result: "1 µM"
- smilesEntry: "Nc1c(C(=O)c2ccccc2)sc2nc3c(cc12)N1CCC3CC1"
  result: "> 4 µM"
- smilesEntry: "Nc1c(C(=O)c2ccc(Br)cc2)sc2nc3c(cc12)CCCC3"
  result: "0.5 µM"
- smilesEntry: "Cc1cccc(NC(=O)c2sc3nc4c(cc3c2N)CCC4)c1C"
  result: "0.05 µM"
- smilesEntry: "Nc1c(C(=O)c2ccc3c(c2)OCO3)sc2nc3c(c(C(F)(F)F)c12)CCCC3"
  result: "> 4 µM"
- smilesEntry: "COc1ccc(C(=O)c2sc3nc(-c4cccs4)ccc3c2N)cc1"
  result: "> 4 µM"
- smilesEntry: "COc1ccc(C(=O)c2sc3nc(C)cc(C)c3c2N)cc1OC"
  result: "> 4 µM"
- smilesEntry: "COc1ccc(C(=O)c2sc3nc4c(cc3c2N)CCCC4)cc1"
  result: "0.5 µM"
- smilesEntry: "COc1ccc(C(=O)c2sc3nc(-c4ccncc4)ccc3c2N)cc1OC"
  result: "4 µM"
- smilesEntry: "N#Cc1cc2c(N)c(C(=O)c3ccc(Cl)cc3)sc2nc1N"
  result: "> 4 µM"
- smilesEntry: "Nc1c(C(=O)c2ccc(Br)cc2)sc2nc3c(cc12)CCC3"
  result: "1 µM"
- smilesEntry: "COc1ccc(C(=O)c2sc3nc(-c4cccs4)ccc3c2N)cc1OC"
  result: "4 µM"

###

test system: Paracentrotus lividus; experiment: Induction of microtubule destabilization in sea urchin embryo assessed as cleavage arrest exposed for 8 to 20 mins after fertilization and 45 to 55 mins before first mitotic cycle completion measured 2.5 to 5.5 hrs after fertilization
outcomeMeasure: EC

- smilesEntry: "Nc1c(C(=O)c2ccc(Br)cc2)sc2nc3c(cc12)CCC3"
  outcomeMeasure: "EC"
  result: "> 4 µM"
- smilesEntry: "COc1ccc(C(=O)c2sc3nc4c(cc3c2N)CCCC4)cc1"
  outcomeMeasure: "EC"
  result: "> 4 µM"
- smilesEntry: "COc1ccc(C(=O)c2sc3nc4c(cc3c2N)N2CCC4CC2)cc1"
  outcomeMeasure: "EC"
  result: "> 4 µM"
- smilesEntry: "COc1ccc(C(=O)c2sc3nc(N)c(C#N)cc3c2N)cc1OC"
  outcomeMeasure: "EC"
  result: "> 4 µM"
- smilesEntry: "COc1ccc(C(=O)c2sc3nc(-c4ccncc4)ccc3c2N)cc1OC"
  outcomeMeasure: "EC"
  result: "> 4 µM"
- smilesEntry: "Cc1cc(C)c2c(N)c(C(=O)c3ccc(Br)cc3)sc2n1"
  outcomeMeasure: "EC"
  result: "> 4 µM"
- smilesEntry: "Cc1ccc(C(=O)c2sc3nc4c(cc3c2N)CCCC4)c(C)c1"
  outcomeMeasure: "EC"
  result: "0.2 µM"
- smilesEntry: "Nc1c(C(=O)c2ccccc2)sc2nc3c(cc12)N1CCC3CC1"
  outcomeMeasure: "EC"
  result: "> 4 µM"
- smilesEntry: "N#Cc1cc2c(N)c(C(=O)c3ccc(Cl)cc3)sc2nc1N"
  outcomeMeasure: "EC"
  result: "> 4 µM"
- smilesEntry: "N#Cc1cc2c(N)c(C(=O)c3ccc(F)cc3)sc2nc1N"
  outcomeMeasure: "EC"
  result: "> 4 µM"
- smilesEntry: "Nc1c(C(=O)c2ccc3c(c2)OCO3)sc2nc3c(cc12)CCCC3"
  outcomeMeasure: "EC"
  result: "0.5 µM"
- smilesEntry: "Cc1ccc(C(=O)c2sc3nc4c(cc3c2N)CCC4)cc1"
  outcomeMeasure: "EC"
  result: "> 4 µM"
- smilesEntry: "Nc1c(C(=O)c2ccc(F)cc2)sc2nc3c(cc12)CCCC3"
  outcomeMeasure: "EC"
  result: "> 4 µM"
- smilesEntry: "Nc1c(C(=O)c2ccc(Cl)cc2)sc2nc3c(cc12)CCCC3"
  outcomeMeasure: "EC"
  result: "> 4 µM"
- smilesEntry: "CN1CCc2nc3sc(C(=O)c4ccccc4)c(N)c3cc2C1"
  outcomeMeasure: "EC"
  result: "> 4 µM"
- smilesEntry: "COc1ccc(C(=O)c2sc3nc(-c4cccs4)ccc3c2N)cc1"
  outcomeMeasure: "EC"
  result: "> 4 µM"
- smilesEntry: "Nc1c(C(=O)c2ccc(Cl)cc2)sc2nc(-c3cccs3)ccc12"
  outcomeMeasure: "EC"
  result: "> 4 µM"
- smilesEntry: "Cc1cccc(NC(=O)c2sc3nc4c(cc3c2N)CCCC4)c1C"
  outcomeMeasure: "EC"
  result: "0.1 µM"
- smilesEntry: "COc1ccc(C(=O)c2sc3nc(C)cc(C)c3c2N)cc1OC"
  outcomeMeasure: "EC"
  result: "> 4 µM"
